Experiment: Cytotoxicity in HCV replicon assay (ΔCt rRNA)
Type: cell-based
Settings: human; replicon cells; CC50; read-out: CC50 or % inhibit cytotoxicity
property-name: CC50 at 5 days

Record CC(C)OC(=O)[C@H](C)NP(=O)(OC[C@H]1O[C@@H](n2ccc(=O)[nH]c2=O)C(F)(Br)C1O)Oc1ccccc1 (stereo in doubt) . Reported CC50 at 5 days: > 10 µM

====

Assay: Cellular toxicity assay in CEM cells
Format: cell-based
Conditions: human, read-out: Cytotoxicity, CC50
property-name: CC50

// recorded CC50 for CC(C)OC(=O)[C@H](C)NP(=O)(OC[C@H]1O[C@@H](n2ccc(=O)[nH]c2=O)C(F)(Br)C1O)Oc1ccccc1 (stereo partly shown) : > 100 µM

====

Target: HCV NS5B RNA polymerase GT 3a L159F (Hepatitis C virus genotype 3a, UniProt Q81258, L2589F)
Construct: The 21-amino-acid C-terminal truncated HCV NS5B RNA polymerase; His6
Sequence (Q81258 2431-3000 L2589F): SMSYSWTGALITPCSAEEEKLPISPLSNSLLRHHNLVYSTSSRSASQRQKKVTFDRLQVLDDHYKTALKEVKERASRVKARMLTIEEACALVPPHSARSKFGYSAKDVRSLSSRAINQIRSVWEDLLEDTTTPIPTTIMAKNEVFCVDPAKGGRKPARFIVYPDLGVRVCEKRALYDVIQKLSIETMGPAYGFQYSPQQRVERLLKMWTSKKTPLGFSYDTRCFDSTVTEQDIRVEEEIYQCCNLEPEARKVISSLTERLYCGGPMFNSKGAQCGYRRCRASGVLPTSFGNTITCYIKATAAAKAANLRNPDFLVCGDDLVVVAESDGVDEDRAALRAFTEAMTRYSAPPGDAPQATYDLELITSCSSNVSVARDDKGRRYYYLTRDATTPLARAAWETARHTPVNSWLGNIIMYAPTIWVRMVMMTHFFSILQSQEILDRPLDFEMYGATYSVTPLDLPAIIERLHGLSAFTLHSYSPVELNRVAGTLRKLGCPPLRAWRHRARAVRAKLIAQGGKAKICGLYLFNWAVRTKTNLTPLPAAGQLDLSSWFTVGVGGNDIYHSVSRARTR
Test: NS5B enzyme assay, GT 3a L159F
Details: NS5B enzyme GT 3a L159F; average of two to three replicates ± SD
property-name: EC50 (µM)
Numbers only, in µM.

Given item C[C@@]1(F)[C@H](O)[C@@H](COP(=O)(O)OP(=O)(O)OP(=O)(O)O)O[C@H]1n1ccc(=O)[nH]c1=O , the value recorded as its EC50 is 5.2

====

Can you tell me Lactic acid Production (% of control) for the items I'm about to list?
System: HepG2 cells
Assay: Lactic acid production in HepG2 cells
Type: cell-based, human
Details: 14-day assay, 10 μM

Some solved cases for reference:
- compound: "CC(C)OC(=O)[C@H](C)NP(=O)(OC[C@H]1O[C@@H](n2ccc(=O)[nH]c2=O)C(F)(Br)C1O)Oc1ccccc1 (stereo in doubt)"
  measurement: "89.5 ± 2.0 % of control"
- compound: "Nc1ccn([C@H]2CC[C@@H](CO)O2)c(=O)n1 [ddc, reference compound]"
  measurement: "267 ± 25.2 % of control"
- compound: "Nc1ccn([C@@H]2CS[C@H](CO)O2)c(=O)n1 [Compound 3TC, reference compound]"
  measurement: "94.9 ± 12.2 % of control"

Kindly review the next compound as well.
The compound identified as O=c1ccn([C@@H]2O[C@H](CO)[C@@H](O)[C@@]2(F)Br)c(=O)[nH]1 registered its Lactic acid Production (% of control) at 85.0 ± 16.3 % of control

====

Experiment: Cellular toxicity assay in CEM cells
Type: cell-based
Conditions: human, value in parentheses after CC50, read-out: Cytotoxicity (% inhibition)
Method: The toxicity of the compounds was assessed in Vero, human PBM, CEM (human lymphoblastoid), MT-2, and HepG2 cells, as described previously (see Schinazi R. F., Sommadossi J.-P., Saalmann V., Cannon D. L., Xie M.-Y., Hart G. C., Smith G. A. & Hahn E. F. Antimicrob. Agents Chemother. 1990, 34, 1061-67). Cycloheximide was included as positive cytotoxic control, and untreated cells exposed to solvent were included as negative controls. […]
property-name: cytotoxicity (%)
Give bare numbers, in %.

Entry CC(C)OC(=O)[C@H](C)NP(=O)(OC[C@H]1O[C@@H](n2ccc(=O)[nH]c2=O)C(F)(Br)C1O)Oc1ccccc1 (stereo partly shown) , cytotoxicity reported as 14

====

Test: Cytotoxicity in HCV replicon assay (ΔCt rRNA)
Assay type: cell-based
Settings: human
property-name: CC50 at 5 days

Lab book: CC50 at 5 days of O=c1ccn([C@@H]2O[C@H](CO)[C@@H](O)[C@@]2(F)Br)c(=O)[nH]1 noted as > 10 µM

====

Test: Cellular toxicity assay in CEM cells
Format: cell-based
Conditions: human, CEM lymphoblastoid cells, read-out: Cytotoxicity, CC50
property-name: CC50

Sample O=c1ccn([C@@H]2O[C@H](CO)[C@@H](O)[C@]2(F)Br)c(=O)[nH]1 ; CC50 observed: > 100 µM

====

Target: HCV NS5B RNA polymerase GT 3a WT
Assay: NS5B enzyme assay, GT 3a WT
Conditions: NS5B enzyme GT 3a WT; average of two to three replicates ± SD
property-name: EC50 (µM)
One number for each entry, in µM.

- test-smiles: "C[C@@]1(F)[C@H](O)[C@@H](COP(=O)(O)OP(=O)(O)OP(=O)(O)O)O[C@H]1n1ccc(=O)[nH]c1=O"
  EC50, µM: 7.2

Looking up C[C@@]1(O)[C@H](O)[C@@H](COP(=O)(O)OP(=O)(O)OP(=O)(O)O)O[C@H]1n1ccc(=O)[nH]c1=O , I see its EC50 listed as 1.8

====

Assay: Cellular toxicity assay in Vero cells
Assay type: cell-based
Settings: African green monkey, read-out: Cytotoxicity, CC50
property-name: CC50

- compound: "O=c1ccn([C@@H]2O[C@H](CO)[C@@H](O)[C@]2(F)Br)c(=O)[nH]1"
  CC50: "> 100 µM"

Now look at this one.
CC50 reading for CC(C)OC(=O)[C@H](C)NP(=O)(OC[C@H]1O[C@@H](n2ccc(=O)[nH]c2=O)C(F)(Br)C1O)Oc1ccccc1 (some centres unmarked) : > 100 µM

====

Assay: Cellular toxicity assay in PBM cells
Format: cell-based
Details: human, value in parentheses after CC50, read-out: Cytotoxicity (% inhibition)
property-name: cytotoxicity (%)
Numbers only, in %.

- compound: "O=c1ccn([C@@H]2O[C@H](CO)[C@@H](O)[C@]2(F)Br)c(=O)[nH]1"
  cytotoxicity (%): -24

Query CC(C)OC(=O)[C@H](C)NP(=O)(OC[C@H]1O[C@@H](n2ccc(=O)[nH]c2=O)C(F)(Br)C1O)Oc1ccccc1 (some centres unmarked) yields cytotoxicity of -3.8

====

Experiment: Cellular toxicity assay in PBM cells
Format: cell-based
Conditions: human, read-out: Cytotoxicity, CC50
property-name: CC50

- compound: "CC(C)OC(=O)[C@H](C)NP(=O)(OC[C@H]1O[C@@H](n2ccc(=O)[nH]c2=O)C(F)(Br)C1O)Oc1ccccc1 (some centres unmarked)"
  CC50: "> 100 µM"

# context switch: different compound, same CC50
Form: compound = O=c1ccn([C@@H]2O[C@H](CO)[C@@H](O)[C@]2(F)Br)c(=O)[nH]1 ; CC50 = > 100 µM

====

Assay: Cellular toxicity assay in CEM cells
Format: cell-based
Settings: human, CEM lymphoblastoid cells, value in parentheses after CC50, read-out: Cytotoxicity (% inhibition)
property-name: cytotoxicity (%)
Give bare numbers, in %.

Summary for this compound, O=c1ccn([C@@H]2O[C@H](CO)[C@@H](O)[C@]2(F)Br)c(=O)[nH]1 : cytotoxicity is 21

====

Test: Assay for bone marrow cytotoxicity
Type: cell-based, human
Conditions: human, primary bone marrow mononuclear cells; organization LOBP; read-out: Bone marrow toxicity, CC50
property-name: CC50

Kindly note the recorded CC50 for O=c1ccn([C@@H]2O[C@H](CO)[C@@H](O)[C@@]2(F)Br)c(=O)[nH]1 [Compound 7, 2′-Deoxy-2′-Bromo-2′-Fluoro Uridine] , which is > 100 µM

====

System: Primary human bone marrow mononuclear cells
Assay: Assay for bone marrow cytotoxicity
Format: cell-based
Details: organization Stem cell; read-out: Bone marrow toxicity, CC50
property-name: CC50

Reported CC50 of CC(C)OC(=O)[C@H](C)NP(=O)(OC[C@H]1O[C@@H](n2ccc(=O)[nH]c2=O)C(F)(Br)C1O)Oc1ccccc1 (stereo in doubt) : > 100 µM

====

System: cellular rRNA (internal control, measure of cytotoxicity)
Test: Cytotoxicity in HCV replicon assay (ΔCt rRNA)
Type: cell-based
Conditions: human
Protocol: Huh 7 Clone B cells containing HCV Replicon RNA were seeded in a 96-well plate at 5000 cells/well, and the compounds tested at 10 μM in triplicate immediately after seeding. […] The antiviral effectiveness of the compounds was calculated by subtracting the threshold RT-PCR cycle of the test compound from the threshold RT-PCR cycle of the no-drug control (ΔCt HCV). […] The cytotoxicity of the compounds was also calculated by using the ΔCt rRNA values. […]
property-name: inhibition at 5 days, 10 µM (%)
Give bare numbers, in %.

# inhibition at 5 days, 10 µM (molecule: Nc1ccn([C@@H]2O[C@H](CO)[C@@H](O)[C@@]2(F)Br)c(=O)n1 [Compound 15, 2′-Deoxy-2′-bromo-2′-fluoro Cytidine] ) is 67.9
